Every entry's value here was drawn from patent US20220289724A1.

Molecular target: Recombinant human KIF18A (1-467 His-tagged) protein (Homo sapiens)
Construct: Recombinant human KIF18A (1-467 His-tagged) protein; His
Assay: KIF18A Enzyme Assay: microtubule-stimulated ATPase activity assay (ADP-Glo)
Settings: KIF18A protein 30 nM, 30 μg/mL pig microtubules, ATP at Km 75 μM, ADP-Glo luminescence, RT
RECORDED ENDPOINT: pIC50
Numbers only, as −log10 of the molar value.

COMPOUND	pIC50
C[S@@](=N)(=O)c1cccc(NC(=O)c2ccc(NS(=O)(=O)CCO)cc2N2CCC3(CC2)CC3)c1	6.37
Cn1ccnc1-c1ccc(C(=O)Nc2cccc(S(=O)(=O)NC(C)(C)C)c2)c(N2CCC3(CC2)CC3)c1	6.91

Below: the item to evaluate.
Problem: Using the record for CC(C)(C)NS(=O)(=O)c1cccc(NC(=O)c2ccc([C@](C)(O)CO)cc2N2CCC3(CC2)CC3)c1 (single isomer, unassigned) , report its pIC50.
Result: 6.85

---

Biological target: Recombinant human KIF18A (1-467 His-tagged) protein (Homo sapiens, UniProt Q8NI77)
Construct: Recombinant human KIF18A (1-467 His-tagged) protein; His
Sequence (Q8NI77 1-467): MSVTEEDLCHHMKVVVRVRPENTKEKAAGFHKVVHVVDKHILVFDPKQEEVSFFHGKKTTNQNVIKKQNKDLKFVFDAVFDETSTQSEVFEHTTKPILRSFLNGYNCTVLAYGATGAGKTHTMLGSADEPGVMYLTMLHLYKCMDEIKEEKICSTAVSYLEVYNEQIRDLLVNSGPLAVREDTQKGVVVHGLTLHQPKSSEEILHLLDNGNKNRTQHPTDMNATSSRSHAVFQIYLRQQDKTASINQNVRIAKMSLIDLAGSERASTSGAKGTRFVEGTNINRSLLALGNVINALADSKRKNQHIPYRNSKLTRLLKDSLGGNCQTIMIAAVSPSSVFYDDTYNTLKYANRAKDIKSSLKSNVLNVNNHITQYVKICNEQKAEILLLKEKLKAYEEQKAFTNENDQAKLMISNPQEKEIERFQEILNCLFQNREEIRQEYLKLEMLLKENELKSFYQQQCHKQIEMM
Sequence (P02550 whole entry partner): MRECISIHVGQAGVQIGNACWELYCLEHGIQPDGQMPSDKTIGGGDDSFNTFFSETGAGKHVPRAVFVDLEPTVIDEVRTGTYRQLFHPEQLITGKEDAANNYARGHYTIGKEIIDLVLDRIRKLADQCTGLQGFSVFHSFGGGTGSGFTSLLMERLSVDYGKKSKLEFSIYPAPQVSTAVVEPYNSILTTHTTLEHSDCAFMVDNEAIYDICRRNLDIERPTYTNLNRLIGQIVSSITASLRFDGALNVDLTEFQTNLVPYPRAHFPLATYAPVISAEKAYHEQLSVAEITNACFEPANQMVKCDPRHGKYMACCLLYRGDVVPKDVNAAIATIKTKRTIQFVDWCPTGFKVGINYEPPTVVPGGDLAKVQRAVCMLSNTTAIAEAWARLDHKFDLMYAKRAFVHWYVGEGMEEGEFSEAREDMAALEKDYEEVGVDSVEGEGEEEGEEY
Sequence (P02554 whole entry partner): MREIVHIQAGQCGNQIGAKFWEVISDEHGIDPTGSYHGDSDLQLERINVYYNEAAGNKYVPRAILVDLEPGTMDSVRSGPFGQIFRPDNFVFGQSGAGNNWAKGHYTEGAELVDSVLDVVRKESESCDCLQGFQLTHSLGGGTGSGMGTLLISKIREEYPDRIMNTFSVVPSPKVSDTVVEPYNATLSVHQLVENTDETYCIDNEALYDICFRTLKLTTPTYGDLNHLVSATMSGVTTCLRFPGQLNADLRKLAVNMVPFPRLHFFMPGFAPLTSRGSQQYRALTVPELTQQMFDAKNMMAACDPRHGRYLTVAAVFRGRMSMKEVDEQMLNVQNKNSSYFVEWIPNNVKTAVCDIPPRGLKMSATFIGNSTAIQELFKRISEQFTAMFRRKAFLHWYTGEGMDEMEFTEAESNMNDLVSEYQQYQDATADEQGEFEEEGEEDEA
Test: KIF18A Enzyme Assay: microtubule-stimulated ATPase activity assay (ADP-Glo)
Conditions: KIF18A protein 30 nM, 30 μg/mL pig microtubules, ATP at Km 75 μM, ADP-Glo luminescence, RT
Exercise: state measured IC50 for each of the molecules provided.
Give bare numbers, in nM.

Below, each entry is followed by its recorded IC50 result.
STRUCTURE SMILES STRING	IC50 / nM
CC(C)(C)NS(=O)(=O)c1cccc(NC(=O)c2ccc(NS(=O)(=O)C(C)(C)C)cc2N2CCC3(CC2)CC3)c1	63
CC(C)(C)NS(=O)(=O)c1cccc(NC(=O)c2ccc(NCCO)cc2N2CCC3(CC2)CC3)c1	134
CC(C)(CO)Nc1cccc(NC(=O)c2ccc(S(=O)(=O)NC3(C)COC3)cc2N2CCC3(CC2)CC3)c1F	66
Cc1ccnc2c(NC(=O)c3ccc(S(C)(=O)=O)cc3N3CCC4(CC3)CC4)cccc12	61
CC(C)c1cccc(NC(=O)c2ccc(S(C)(=O)=O)cc2N2CCC3(CC2)CC3)c1	94
CC(C)(C)NS(=O)(=O)c1cccc(NC(=O)c2ccc(S(C)(=O)=O)cc2N2CCC3(CC2)CC3)c1	61
CC(C)(C)NS(=O)(=O)c1cccc(NC(=O)c2ccc(S(=O)(=O)N3CCC3)cc2N2CCC3(CC2)CC3)c1	44

Below: the item to evaluate.
Problem: What value of IC50 on Recombinant human KIF18A (1-467 His-tagged) protein (Homo sapiens, UniProt Q8NI77) does `CC(C)(C)NS(=O)(=O)c1cccc(NC(=O)c2ccc(CS(=O)(=O)CCO)cc2N2CCC3(CC2)CC3)c1` have?
Result: 75

---

Target: Recombinant human KIF18A (1-467 His-tagged) protein (Homo sapiens, UniProt Q8NI77)
Construct: Recombinant human KIF18A (1-467 His-tagged) protein; His
Test: KIF18A Enzyme Assay: microtubule-stimulated ATPase activity assay (ADP-Glo)
Conditions: KIF18A protein 30 nM, 30 μg/mL pig microtubules, ATP at Km 75 μM, ADP-Glo luminescence, RT
Exercise: state measured pIC50 for each of the molecules provided.
Answers are plain numbers, as −log10 of the molar value.

STRUCTURE SMILES STRING	STUDY TARGET	RECORDED ENDPOINT	ENDPOINT RESULT
CC(C)(C)NS(=O)(=O)c1cccc(NC(=O)c2ccc(NS(C)(=O)=O)cc2N2CCC3(CC2)CC3)c1	Recombinant human KIF18A (1-467 His-tagged) protein (Homo sapiens, UniProt Q8NI77)	pIC50	7.57
CCS(=O)(=O)Nc1ccc(C(=O)Nc2cccc(S(=O)(=O)NC(C)(C)C)c2)c(N2CCC3(CC2)CC3)c1	Recombinant human KIF18A (1-467 His-tagged) protein (Homo sapiens, UniProt Q8NI77)	pIC50	7.47
CC(C)(C)[S@@](=N)(=O)c1cccc(NC(=O)c2ccc(NS(=O)(=O)CCO)cc2N2CCC3(CC2)CC3)c1	Recombinant human KIF18A (1-467 His-tagged) protein (Homo sapiens, UniProt Q8NI77)	pIC50	6.71

Below: the item to evaluate.
Problem: What value of pIC50 on Recombinant human KIF18A (1-467 His-tagged) protein (Homo sapiens, UniProt Q8NI77) does `O=C(Nc1cccc(N2CCC(F)(F)CC2)c1F)c1ccc(NS(=O)(=O)CCO)cc1N1CCC2(CC1)CC2` have?
Result: 7.54
